Biological target: BcChi-A (Gemmabryum coronatum, UniProt A9ZSX9, W126F)
Construct: recombinant, pET-22b in E. coli BL21(DE3); purified from cell lysate by acid treatment, Q-Sepharose, Sephacryl S-100; no tag mentioned; 15N-labelled for NMR; catalytic domain, loopless GH19
Sequence (A9ZSX9 entry or part of it W126F): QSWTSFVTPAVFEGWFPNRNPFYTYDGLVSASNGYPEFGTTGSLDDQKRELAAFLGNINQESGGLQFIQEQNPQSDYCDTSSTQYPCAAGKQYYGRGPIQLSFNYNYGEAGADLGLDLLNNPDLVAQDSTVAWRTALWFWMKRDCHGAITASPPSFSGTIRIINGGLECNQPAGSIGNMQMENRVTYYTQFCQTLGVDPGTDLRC
Experiment: 1H-15N HSQC NMR titration, Asn20 chemical shift
Details: 50 mM sodium acetate pH 5.0, 90% H2O/10% D2O, 300 K; 0.2 mM 15N protein
experimental-readout: Kd (mM)
Entry rule: numbers only, all in mM.

# Kd of CC(=O)N[C@H]1[C@H](O[C@H]2[C@H](O)[C@@H](NC(C)=O)C(O)O[C@@H]2CO)O[C@H](CO)[C@@H](O)[C@@H]1O (stereo partly shown) [(GlcNAc)2] = 22

====

Molecular target: BcChi-A (Gemmabryum coronatum, UniProt A9ZSX9)
Construct: recombinant, pET-22b in E. coli BL21(DE3); purified from cell lysate by acid treatment, Q-Sepharose, Sephacryl S-100; no tag mentioned; 15N-labelled for NMR; catalytic domain, loopless GH19
Sequence (A9ZSX9 entry or part of it): as the sequence (A9ZSX9 entry or part of it W126F) above, with F103W counted along it
Assay: 1H-15N HSQC NMR titration, Asn20 chemical shift
Settings: 50 mM sodium acetate pH 5.0, 90% H2O/10% D2O, 300 K; 0.2 mM 15N protein
Excerpt: 1H-15N HSQC NMR titration, Asn20 chemical shift on BcChi-A
experimental-readout: Kd (mM)
# unit: mM | format: bare number

Entry CC(=O)N[C@H]1[C@H](O[C@H]2[C@H](O)[C@@H](NC(C)=O)C(O)O[C@@H]2CO)O[C@H](CO)[C@@H](O)[C@@H]1O (stereo partly shown) — recorded Kd = 4.2
